Quick reference: pIC50 of the listed items.
# Tested On: human α1G T-type channels (Homo sapiens, UniProt O43497)
# Construct: expressed in transfected cells; host or cells: HEK 293
# Sequence (O43497 whole entry): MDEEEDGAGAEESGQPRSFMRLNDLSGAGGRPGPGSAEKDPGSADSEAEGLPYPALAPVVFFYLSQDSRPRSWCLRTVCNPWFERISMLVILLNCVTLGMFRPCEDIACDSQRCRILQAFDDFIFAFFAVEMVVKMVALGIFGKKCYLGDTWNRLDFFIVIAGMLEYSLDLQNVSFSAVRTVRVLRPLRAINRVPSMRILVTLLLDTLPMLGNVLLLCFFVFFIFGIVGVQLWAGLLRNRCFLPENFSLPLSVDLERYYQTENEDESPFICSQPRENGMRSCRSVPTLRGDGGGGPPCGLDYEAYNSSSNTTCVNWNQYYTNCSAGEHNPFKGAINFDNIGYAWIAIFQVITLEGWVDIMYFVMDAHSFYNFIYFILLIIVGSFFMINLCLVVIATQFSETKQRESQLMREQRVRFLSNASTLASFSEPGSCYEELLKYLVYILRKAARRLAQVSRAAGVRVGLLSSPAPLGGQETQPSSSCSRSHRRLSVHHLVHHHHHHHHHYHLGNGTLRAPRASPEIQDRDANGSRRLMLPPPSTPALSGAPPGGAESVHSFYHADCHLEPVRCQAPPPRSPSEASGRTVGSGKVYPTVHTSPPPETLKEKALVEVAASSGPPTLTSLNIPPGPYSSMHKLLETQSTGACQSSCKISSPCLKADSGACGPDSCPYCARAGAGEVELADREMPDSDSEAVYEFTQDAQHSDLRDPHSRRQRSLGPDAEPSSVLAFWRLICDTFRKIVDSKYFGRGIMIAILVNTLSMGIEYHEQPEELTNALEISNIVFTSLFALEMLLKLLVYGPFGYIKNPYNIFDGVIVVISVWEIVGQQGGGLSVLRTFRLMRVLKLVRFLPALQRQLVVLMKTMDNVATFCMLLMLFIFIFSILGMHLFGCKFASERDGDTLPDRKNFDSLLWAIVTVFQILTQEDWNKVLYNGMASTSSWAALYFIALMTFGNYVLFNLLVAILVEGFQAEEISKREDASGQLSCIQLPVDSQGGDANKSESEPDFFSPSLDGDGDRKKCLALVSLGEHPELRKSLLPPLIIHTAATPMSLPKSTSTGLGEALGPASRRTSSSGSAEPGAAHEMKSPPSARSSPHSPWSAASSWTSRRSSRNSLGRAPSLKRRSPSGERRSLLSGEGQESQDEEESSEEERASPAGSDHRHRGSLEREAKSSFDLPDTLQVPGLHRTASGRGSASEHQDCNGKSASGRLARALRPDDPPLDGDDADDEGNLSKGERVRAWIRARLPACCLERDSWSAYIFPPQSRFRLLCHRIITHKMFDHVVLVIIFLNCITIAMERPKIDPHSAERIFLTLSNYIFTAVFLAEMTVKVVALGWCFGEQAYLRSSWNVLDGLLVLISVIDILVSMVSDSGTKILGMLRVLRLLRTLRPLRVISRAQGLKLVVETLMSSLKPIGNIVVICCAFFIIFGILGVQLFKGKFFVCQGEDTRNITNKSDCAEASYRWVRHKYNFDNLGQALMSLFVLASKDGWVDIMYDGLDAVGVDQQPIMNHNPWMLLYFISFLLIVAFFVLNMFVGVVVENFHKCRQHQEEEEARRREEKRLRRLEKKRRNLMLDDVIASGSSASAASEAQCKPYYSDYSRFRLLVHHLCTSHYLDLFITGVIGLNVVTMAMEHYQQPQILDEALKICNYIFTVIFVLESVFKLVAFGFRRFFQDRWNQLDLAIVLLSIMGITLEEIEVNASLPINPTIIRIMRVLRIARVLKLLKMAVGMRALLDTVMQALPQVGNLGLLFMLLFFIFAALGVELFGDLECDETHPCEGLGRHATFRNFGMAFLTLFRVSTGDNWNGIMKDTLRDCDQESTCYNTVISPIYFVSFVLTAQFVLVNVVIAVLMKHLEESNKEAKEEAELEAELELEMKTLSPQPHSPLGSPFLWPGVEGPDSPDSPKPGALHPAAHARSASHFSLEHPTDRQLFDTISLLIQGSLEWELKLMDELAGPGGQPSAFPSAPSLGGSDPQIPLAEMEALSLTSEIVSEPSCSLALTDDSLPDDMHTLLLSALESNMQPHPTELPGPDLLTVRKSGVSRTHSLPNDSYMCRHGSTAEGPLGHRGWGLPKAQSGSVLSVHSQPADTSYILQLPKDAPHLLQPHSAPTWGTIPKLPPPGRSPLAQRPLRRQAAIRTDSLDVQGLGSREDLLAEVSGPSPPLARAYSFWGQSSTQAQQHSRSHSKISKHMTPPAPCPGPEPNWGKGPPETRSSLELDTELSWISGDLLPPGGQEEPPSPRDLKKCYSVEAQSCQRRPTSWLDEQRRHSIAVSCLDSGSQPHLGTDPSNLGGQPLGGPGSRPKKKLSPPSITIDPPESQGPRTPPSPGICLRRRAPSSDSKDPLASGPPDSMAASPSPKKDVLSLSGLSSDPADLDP
# Protocol: T-type calcium channel block, whole cell patch clamp in HEK cells (α1G)
# Type: cell-based
# Reported Conditions: HEK cells, patch clamp, mainly non-inactivated protocol; values above 10 μM shown as 10 μM, below 0.30 μM shown as 0.30 μM; read-out: T-type Calcium Channel Block α1G IC50
Scale note: pIC50 = -log10(concentration in M).

Look over these answered cases.
# Compound, Tested On, pIC50
records = [
    ("CCS(=O)(=O)N1CCC[C@H]1CN1CCC(CNC(=O)c2cc(F)cc(C(F)(F)F)c2)CC1", "human α1G T-type channels (Homo sapiens, UniProt O43497)", 5.02),
    ("O=C(NCC1CCN(CCNS(=O)(=O)C2CC2)CC1)c1cccc(Br)c1", "human α1G T-type channels (Homo sapiens, UniProt O43497)", 5.73),
    ("CC(C)(C)C(=O)N1CCC[C@H]1CN1CCC(CNC(=O)c2cc(F)cc(C(F)(F)F)c2)CC1", "human α1G T-type channels (Homo sapiens, UniProt O43497)", 5.68),
    ("CC(C)(C)C(O)CN1CCC(CC(=O)NCc2ccc(Oc3ccccc3)cc2)CC1 (centres unmarked)", "human α1G T-type channels (Homo sapiens, UniProt O43497)", 5.61),
]

Given the entry CC(C)S(=O)(=O)NCCN1CCC(CNC(=O)c2cccc(Cl)c2)CC1 , report its measured pIC50.
6.07
